# credit: patent US5726195A

I'd be grateful if you could share measured MIC for these entries.
Test system: S. aureus ATCC 14154
MEASUREMENT_DESCRIPTION: Whole cell antimicrobial screen, MIC
Type: cell-based
COND: Staphylococcus aureus, ATCC14154
Procedure: Compounds were tested for antimicrobial activity against a panel of organisms according to standard procedures described by the National Committee for Clinical Laboratory Standards (NCCLS document M7-A3, Vol. 13, No. 25, 1993/NCCLS document M27-P, Vol. 12, No. 25, 1992). […] Plates were incubated overnight at an appropriate temperature (30° C.-37° C.) and optical densities (measure of cell growth) were measured using a commercial plate reader. […]
Answers are plain numbers, in µg/mL.

CC[C@H](C)[C@H](N)C(=O)NS(=O)(=O)OC[C@H]1O[C@@H](CCn2nnc(-c3ccc([N+](=O)[O-])cc3)n2)[C@H](O)[C@@H]1O
500

Would you be so kind as to report MIC for each listed record?
1. CC[C@H](C)[C@H](N)C(=O)NS(=O)(=O)OC[C@H]1O[C@@H](CCn2nnc(-c3ccc(-c4ccccn4)nc3)n2)[C@H](O)[C@@H]1O
2. CC[C@H](C)[C@H](N)C(=O)NS(=O)(=O)OC[C@H]1O[C@@H](CCn2nnc(-c3ccc(Oc4cccc(C(F)(F)F)c4)cc3)n2)[C@H](O)[C@@H]1O

output:
[100, 25]

----------
STUDY_SYSTEM: E. Coli. IleRS (isoleucyl-tRNA synthetase) (Escherichia coli)
Sequence (P00956 whole entry): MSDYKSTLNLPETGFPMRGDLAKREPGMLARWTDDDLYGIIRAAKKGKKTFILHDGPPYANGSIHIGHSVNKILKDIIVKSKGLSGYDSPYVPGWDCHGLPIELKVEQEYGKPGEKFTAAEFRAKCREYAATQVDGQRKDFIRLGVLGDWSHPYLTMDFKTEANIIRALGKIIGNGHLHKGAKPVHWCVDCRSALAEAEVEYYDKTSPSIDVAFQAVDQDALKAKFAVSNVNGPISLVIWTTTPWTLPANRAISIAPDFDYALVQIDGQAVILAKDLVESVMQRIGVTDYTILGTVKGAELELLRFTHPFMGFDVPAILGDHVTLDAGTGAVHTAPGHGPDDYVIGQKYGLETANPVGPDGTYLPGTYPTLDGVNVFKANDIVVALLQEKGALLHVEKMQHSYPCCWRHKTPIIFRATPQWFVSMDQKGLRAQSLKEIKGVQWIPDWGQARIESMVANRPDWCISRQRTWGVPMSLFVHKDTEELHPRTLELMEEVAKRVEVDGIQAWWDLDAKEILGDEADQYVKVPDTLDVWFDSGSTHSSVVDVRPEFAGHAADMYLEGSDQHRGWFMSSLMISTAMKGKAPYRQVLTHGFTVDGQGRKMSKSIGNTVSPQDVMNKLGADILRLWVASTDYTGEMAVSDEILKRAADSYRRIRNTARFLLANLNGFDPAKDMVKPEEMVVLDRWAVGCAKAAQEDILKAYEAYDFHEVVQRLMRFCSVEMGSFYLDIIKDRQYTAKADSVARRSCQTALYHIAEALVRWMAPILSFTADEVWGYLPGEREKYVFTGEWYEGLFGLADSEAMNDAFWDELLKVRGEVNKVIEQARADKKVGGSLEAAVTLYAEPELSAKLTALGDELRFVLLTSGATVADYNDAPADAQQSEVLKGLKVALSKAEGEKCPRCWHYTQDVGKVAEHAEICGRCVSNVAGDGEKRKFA
MEASUREMENT_DESCRIPTION: Inhibition of isoleucyl-tRNA synthetase (aminoacylation of tRNA with [3H]isoleucine)
Type: biochemical
COND: E. coli enzyme; irreversible inhibitors: values are 50% of the active enzyme concentration; read-out: IC50 E.Coli. IleRS
QUANTITY: log10(IC50) (log10 of the value in nM)
Hello, just confirming the data are log10 of IC50 with units of nM.

CC[C@H](C)[C@H](N)C(=O)NS(=O)(=O)OC[C@H]1O[C@@H](CCn2nnc(-c3ccc(Oc4ccc(Oc5ccccc5)cc4)cc3)n2)[C@H](O)[C@@H]1O
0.26
CC[C@H](C)[C@H](N)C(=O)NS(=O)(=O)OC[C@H]1O[C@@H](CCn2nnc(-c3ccc(-c4ccc(F)c(F)c4)cc3)n2)[C@H](O)[C@@H]1O
0.46
CC[C@H](C)[C@H](N)C(=O)NS(=O)(=O)OC[C@H]1O[C@@H](CCn2nnc(-c3ccc(Oc4ccc(N)cc4)cc3)n2)[C@H](O)[C@@H]1O
-0.40
CC[C@H](C)[C@H](N)C(=O)NS(=O)(=O)OC[C@H]1O[C@@H](CCn2nnc(N3CCN(c4ccccc4)CC3)n2)[C@H](O)[C@@H]1O
0.11
CC[C@H](C)[C@H](N)C(=O)NS(=O)(=O)OC[C@H]1O[C@@H](CCn2nnc(-c3ccc(-c4ccccc4C)c(C)c3)n2)[C@H](O)[C@@H]1O
1.04

Would you be so kind as to report log10(IC50) for each listed record?
1. CC[C@H](C)[C@H](N)C(=O)NS(=O)(=O)OC[C@H]1O[C@@H](CCn2nnc(-c3ccc(Oc4ccccn4)cc3)n2)[C@H](O)[C@@H]1O
2. CC[C@H](C)[C@H](N)C(=O)NS(=O)(=O)OC[C@H]1O[C@@H](CCn2nnc(-c3ccc(C#Cc4ccc([N+](=O)[O-])s4)cc3)n2)[C@H](O)[C@@H]1O
3. CC[C@H](C)[C@H](N)C(=O)NS(=O)(=O)OC[C@H]1O[C@@H](CCn2nnc(-c3ccc(OCc4ccc([N+](=O)[O-])s4)cc3)n2)[C@H](O)[C@@H]1O
4. CC[C@H](C)[C@H](N)C(=O)NS(=O)(=O)OC[C@H]1O[C@@H](CCn2nnc(-c3ccc(C(=O)OC)cc3)n2)[C@H](O)[C@@H]1O

output:
1: -0.15; 2: 0.11; 3: -0.22; 4: -0.28

Would you be so kind as to report log10(IC50) for each listed record?
1. CC[C@H](C)[C@H](N)C(=O)NS(=O)(=O)OC[C@H]1O[C@@H](CCn2nnc(-c3ccc(-c4ccccn4)nc3)n2)[C@H](O)[C@@H]1O
2. CC[C@H](C)[C@H](N)C(=O)NS(=O)(=O)OC[C@H]1O[C@@H](CCn2nnc(-c3ccc([N+](=O)[O-])cc3)n2)[C@H](O)[C@@H]1O
3. CC[C@H](C)[C@H](N)C(=O)NS(=O)(=O)OC[C@H]1O[C@@H](CCn2nnc(-c3ccc(-c4ccccc4)c(C)c3)n2)[C@H](O)[C@@H]1O
4. CC[C@H](C)[C@H](N)C(=O)NS(=O)(=O)OC[C@H]1O[C@@H](CCn2nnc(-c3ccc(Sc4ccccc4)cc3)n2)[C@H](O)[C@@H]1O
5. CC[C@H](C)[C@H](N)C(=O)NS(=O)(=O)OC[C@H]1O[C@@H](CCn2nnc(-c3ccc(Oc4ccc(OC)cc4)cc3)n2)[C@H](O)[C@@H]1O
6. CC[C@H](C)[C@H](N)C(=O)NS(=O)(=O)OC[C@H]1O[C@@H](CCn2nnc(-c3ccc([N+](=O)[O-])o3)n2)[C@H](O)[C@@H]1O
7. CC[C@H](C)[C@H](N)C(=O)NS(=O)(=O)OC[C@H]1O[C@@H](CCn2nnc(-c3ccc(Oc4cccc(C(F)(F)F)c4)cc3)n2)[C@H](O)[C@@H]1O

output:
1. -0.30
2. -0.30
3. -0.22
4. 0.70
5. 0.48
6. 0.94
7. 0.23

Would you be so kind as to report log10(IC50) for each listed record?
1. CC[C@H](C)[C@H](N)C(=O)NS(=O)(=O)OC[C@H]1O[C@@H](CCn2nnc(-c3ccc(-c4ccccc4C)cc3)n2)[C@H](O)[C@@H]1O
2. CC[C@H](C)[C@H](N)C(=O)NS(=O)(=O)OC[C@H]1O[C@@H](CCn2nnc(Cc3ccc(Oc4ccccc4)cc3)n2)[C@H](O)[C@@H]1O
3. CC[C@H](C)[C@H](N)C(=O)NS(=O)(=O)OC[C@H]1O[C@@H](CCn2nnc(-c3ccc(Oc4nccs4)cc3)n2)[C@H](O)[C@@H]1O
4. CC[C@H](C)[C@H](N)C(=O)NS(=O)(=O)OC[C@H]1O[C@@H](CCn2nnc(CCCOc3ccccc3)n2)[C@H](O)[C@@H]1O
5. CC[C@H](C)[C@H](N)C(=O)NS(=O)(=O)OC[C@H]1O[C@@H](CCn2nnc(-c3ccc(-c4ccccc4)cc3C)n2)[C@H](O)[C@@H]1O
6. CC[C@H](C)[C@H](N)C(=O)NS(=O)(=O)OC[C@H]1O[C@@H](CCn2nnc(-c3ccc(C#Cc4cccc([N+](=O)[O-])c4)cc3)n2)[C@H](O)[C@@H]1O
7. CC[C@H](C)[C@H](N)C(=O)NS(=O)(=O)OC[C@H]1O[C@@H](CCn2nnc(-c3ccc(Oc4ccc(C(=O)OCc5ccccc5)cc4)cc3)n2)[C@H](O)[C@@H]1O

output:
0.72
0.43
0.00
-0.52
-0.30
0.48
2.04

----------
Tested on: S. aureus ATCC 14154
MEASUREMENT_DESCRIPTION: Whole cell antimicrobial screen, MIC
Assay type: cell-based
COND: Staphylococcus aureus, ATCC14154
Experimental: Compounds were tested for antimicrobial activity against a panel of organisms according to standard procedures described by the National Committee for Clinical Laboratory Standards (NCCLS document M7-A3, Vol. 13, No. 25, 1993/NCCLS document M27-P, Vol. 12, No. 25, 1992). […] Plates were incubated overnight at an appropriate temperature (30° C.-37° C.) and optical densities (measure of cell growth) were measured using a commercial plate reader. […]
I'd be grateful if you could share measured MIC for these entries.
Numbers only, in µg/mL.

CC[C@H](C)[C@H](N)C(=O)NS(=O)(=O)OC[C@H]1O[C@@H](CCn2nnc(-c3ccc(C#Cc4ccccc4)cc3)n2)[C@H](O)[C@@H]1O
100
CC[C@H](C)[C@H](N)C(=O)NS(=O)(=O)OC[C@H]1O[C@@H](CCn2nnc(-c3ccc(-c4ccc(F)c(F)c4)cc3)n2)[C@H](O)[C@@H]1O
100
CC[C@H](C)[C@H](N)C(=O)NS(=O)(=O)OC[C@H]1O[C@@H](CCn2nnc(-c3ccc(-c4ccccc4)cc3C)n2)[C@H](O)[C@@H]1O
500
CC[C@H](C)[C@H](N)C(=O)NS(=O)(=O)OC[C@H]1O[C@@H](CCn2nnc(-c3ccc(Sc4ccccc4)cc3)n2)[C@H](O)[C@@H]1O
50
CC[C@H](C)[C@H](N)C(=O)NS(=O)(=O)OC[C@H]1O[C@@H](CCn2nnc(-c3ccc(-c4ccccc4)c(C)c3)n2)[C@H](O)[C@@H]1O
50

Okay, next one:
input: # returns recorded MIC (system: S. aureus ATCC 14154) for CC[C@H](C)[C@H](N)C(=O)NS(=O)(=O)OC[C@H]1O[C@@H](CCn2nnc(-c3ccc(C(=O)OC)cc3)n2)[C@H](O)[C@@H]1O
output: 500
